test_method_notes: Plasma concentrations (PK), Example 1
Assay type: in vivo, human
condition_set: human, plasma, oral, 25 mg, 25 mg BID; Week 8; Intermediate; read-out: Plasma concentration, Median
Procedure: For QD dosing, peak concentration was defined as any PK sample taken between 0.25 to <6 hours after the last morning dose and trough concentration was at least 20 hours after the last morning dose. For BID dosing, peak concentration was defined as any PK sample taken between 0.25 to <4 hours after the last dose and trough concentration was at least 8 hours after the last dose.
experimental_readout: level at 1344 h

Quick check: level at 1344 h of CC(=O)NCCCC[C@@H]1NC(=O)[C@H](Cc2c[nH]c3c(C)cccc23)NC(=O)[C@H]([C@@H](C)O)NC(=O)[C@H](CC(N)=O)NC(=O)[C@@H](NC(C)=O)C(C)(C)SSC(C)(C)[C@@H](C(=O)N[C@@H](Cc2ccc(OCCN)cc2)C(=O)N[C@@H](Cc2ccc3ccccc3c2)C(=O)NC2(C(=O)N[C@@H](CCC(=O)O)C(=O)N[C@@H](CC(N)=O)C(=O)N[C@@H](Cc3cccnc3)C(=O)N(C)CC(N)=O)CCOCC2)NC1=O [IL-23 receptor antagonist peptide] ? 0.092 ng/mL

====

test_method_notes: Plasma concentrations (PK), Example 1
Assay type: in vivo, human
condition_set: human, plasma, oral, 25 mg, 25 mg BID; Week 8; Peak; read-out: Plasma concentration, Median
experimental_readout: level at 1344 h (ng/mL)
Answer with a number only, understood to be in ng/mL.

Quick check: level at 1344 h of CC(=O)NCCCC[C@@H]1NC(=O)[C@H](Cc2c[nH]c3c(C)cccc23)NC(=O)[C@H]([C@@H](C)O)NC(=O)[C@H](CC(N)=O)NC(=O)[C@@H](NC(C)=O)C(C)(C)SSC(C)(C)[C@@H](C(=O)N[C@@H](Cc2ccc(OCCN)cc2)C(=O)N[C@@H](Cc2ccc3ccccc3c2)C(=O)NC2(C(=O)N[C@@H](CCC(=O)O)C(=O)N[C@@H](CC(N)=O)C(=O)N[C@@H](Cc3cccnc3)C(=O)N(C)CC(N)=O)CCOCC2)NC1=O [IL-23 receptor antagonist peptide] ? 0.545

====

test_method_notes: Plasma concentrations (PK), Example 1
Type: in vivo, human
condition_set: human, plasma, oral, 25 mg, 25 mg BID; Week 8; Trough; read-out: Plasma concentration, Mean
experimental_readout: level at 1344 h (ng/mL)
Answer with a number only, understood to be in ng/mL.

Quick check: level at 1344 h of CC(=O)NCCCC[C@@H]1NC(=O)[C@H](Cc2c[nH]c3c(C)cccc23)NC(=O)[C@H]([C@@H](C)O)NC(=O)[C@H](CC(N)=O)NC(=O)[C@@H](NC(C)=O)C(C)(C)SSC(C)(C)[C@@H](C(=O)N[C@@H](Cc2ccc(OCCN)cc2)C(=O)N[C@@H](Cc2ccc3ccccc3c2)C(=O)NC2(C(=O)N[C@@H](CCC(=O)O)C(=O)N[C@@H](CC(N)=O)C(=O)N[C@@H](Cc3cccnc3)C(=O)N(C)CC(N)=O)CCOCC2)NC1=O [IL-23 receptor antagonist peptide] ? 0.184

====

test_method_notes: Plasma concentrations (PK), Example 1
Format: in vivo, human
condition_set: human, plasma, oral, 50 mg, 50 mg QD; Week 8; Peak; read-out: Plasma concentration, Mean
experimental_readout: level at 1344 h

Quick check: level at 1344 h of CC(=O)NCCCC[C@@H]1NC(=O)[C@H](Cc2c[nH]c3c(C)cccc23)NC(=O)[C@H]([C@@H](C)O)NC(=O)[C@H](CC(N)=O)NC(=O)[C@@H](NC(C)=O)C(C)(C)SSC(C)(C)[C@@H](C(=O)N[C@@H](Cc2ccc(OCCN)cc2)C(=O)N[C@@H](Cc2ccc3ccccc3c2)C(=O)NC2(C(=O)N[C@@H](CCC(=O)O)C(=O)N[C@@H](CC(N)=O)C(=O)N[C@@H](Cc3cccnc3)C(=O)N(C)CC(N)=O)CCOCC2)NC1=O [IL-23 receptor antagonist peptide] ? 1.1 ng/mL

====

test_method_notes: Plasma concentrations (PK), Example 1
Type: in vivo, human
condition_set: human, plasma, oral, 25 mg, 25 mg QD; Week 8; Peak; read-out: Plasma concentration, Mean
experimental_readout: level at 1344 h (ng/mL)
Answer with a number only, understood to be in ng/mL.

Quick check: level at 1344 h of CC(=O)NCCCC[C@@H]1NC(=O)[C@H](Cc2c[nH]c3c(C)cccc23)NC(=O)[C@H]([C@@H](C)O)NC(=O)[C@H](CC(N)=O)NC(=O)[C@@H](NC(C)=O)C(C)(C)SSC(C)(C)[C@@H](C(=O)N[C@@H](Cc2ccc(OCCN)cc2)C(=O)N[C@@H](Cc2ccc3ccccc3c2)C(=O)NC2(C(=O)N[C@@H](CCC(=O)O)C(=O)N[C@@H](CC(N)=O)C(=O)N[C@@H](Cc3cccnc3)C(=O)N(C)CC(N)=O)CCOCC2)NC1=O [IL-23 receptor antagonist peptide] ? 0.443

====

test_method_notes: Plasma concentrations (PK), Example 1
Assay type: in vivo, human
condition_set: human, plasma, oral, 50 mg, weight >90 kg, 50 mg QD, Week 16, Trough; read-out: Plasma concentration, Geometric Mean
experimental_readout: level at 2688 h (ng/mL)
Answer with a number only, understood to be in ng/mL.

Quick check: level at 2688 h of CC(=O)NCCCC[C@@H]1NC(=O)[C@H](Cc2c[nH]c3c(C)cccc23)NC(=O)[C@H]([C@@H](C)O)NC(=O)[C@H](CC(N)=O)NC(=O)[C@@H](NC(C)=O)C(C)(C)SSC(C)(C)[C@@H](C(=O)N[C@@H](Cc2ccc(OCCN)cc2)C(=O)N[C@@H](Cc2ccc3ccccc3c2)C(=O)NC2(C(=O)N[C@@H](CCC(=O)O)C(=O)N[C@@H](CC(N)=O)C(=O)N[C@@H](Cc3cccnc3)C(=O)N(C)CC(N)=O)CCOCC2)NC1=O [IL-23 receptor antagonist peptide] ? 0.105

====

test_method_notes: Plasma concentrations (PK), Example 1
Assay type: in vivo, human
condition_set: human, plasma, oral, 25 mg, 25 mg BID; Week 8; Trough; read-out: Plasma concentration, Median
experimental_readout: level at 1344 h (ng/mL)
Answer with a number only, understood to be in ng/mL.

Quick check: level at 1344 h of CC(=O)NCCCC[C@@H]1NC(=O)[C@H](Cc2c[nH]c3c(C)cccc23)NC(=O)[C@H]([C@@H](C)O)NC(=O)[C@H](CC(N)=O)NC(=O)[C@@H](NC(C)=O)C(C)(C)SSC(C)(C)[C@@H](C(=O)N[C@@H](Cc2ccc(OCCN)cc2)C(=O)N[C@@H](Cc2ccc3ccccc3c2)C(=O)NC2(C(=O)N[C@@H](CCC(=O)O)C(=O)N[C@@H](CC(N)=O)C(=O)N[C@@H](Cc3cccnc3)C(=O)N(C)CC(N)=O)CCOCC2)NC1=O [IL-23 receptor antagonist peptide] ? 0.143

====

test_method_notes: Plasma concentrations (PK), Example 1
Type: in vivo, human
condition_set: human, plasma, oral, 100 mg, 100 mg BID; Week 4; Intermediate; read-out: Plasma concentration, Geometric Mean
experimental_readout: level at 672 h

Quick check: level at 672 h of CC(=O)NCCCC[C@@H]1NC(=O)[C@H](Cc2c[nH]c3c(C)cccc23)NC(=O)[C@H]([C@@H](C)O)NC(=O)[C@H](CC(N)=O)NC(=O)[C@@H](NC(C)=O)C(C)(C)SSC(C)(C)[C@@H](C(=O)N[C@@H](Cc2ccc(OCCN)cc2)C(=O)N[C@@H](Cc2ccc3ccccc3c2)C(=O)NC2(C(=O)N[C@@H](CCC(=O)O)C(=O)N[C@@H](CC(N)=O)C(=O)N[C@@H](Cc3cccnc3)C(=O)N(C)CC(N)=O)CCOCC2)NC1=O [IL-23 receptor antagonist peptide] ? 0.756 ng/mL

====

test_method_notes: Plasma concentrations (PK), Example 1
Assay type: in vivo, human
condition_set: human, plasma, oral, 100 mg, weight >90 kg, 100 mg QD, Week 16, Trough; read-out: Plasma concentration, Mean
experimental_readout: level at 2688 h (ng/mL)
Answer with a number only, understood to be in ng/mL.

Quick check: level at 2688 h of CC(=O)NCCCC[C@@H]1NC(=O)[C@H](Cc2c[nH]c3c(C)cccc23)NC(=O)[C@H]([C@@H](C)O)NC(=O)[C@H](CC(N)=O)NC(=O)[C@@H](NC(C)=O)C(C)(C)SSC(C)(C)[C@@H](C(=O)N[C@@H](Cc2ccc(OCCN)cc2)C(=O)N[C@@H](Cc2ccc3ccccc3c2)C(=O)NC2(C(=O)N[C@@H](CCC(=O)O)C(=O)N[C@@H](CC(N)=O)C(=O)N[C@@H](Cc3cccnc3)C(=O)N(C)CC(N)=O)CCOCC2)NC1=O [IL-23 receptor antagonist peptide] ? 0.11

Origin of the recorded values: patent US20260232767A1
